Test system: diaphorase
Test: fluorescently labeled diaphorase binding to peptide array with or without excess FAD
Conditions: 10 micromolar labeled diaphorase, no FAD; 65535 is detector saturation
Procedure: Measurements were performed in which diaphorase was bound to an array of about 126,000 unique sequences. The sequences were chosen simply to cover sequence space. 16 of the natural 20 amino acids were used to make up these sequences with C, I, M and T omitted. The diaphorase was fluorescently labeled and each peptide sequence feature was scanned and fluorescence recorded on the array. Diaphorase bound tightly to some peptides and not at all to others. […]
Readout name: 10 microM no FAD (array fluorescence of bound diaphorase)
Please give the numeric answer without any surrounding text.

Prompt: Give its 10 microM no FAD (array fluorescence of bound diaphorase) value. Item: PRYSGQYGGSG [array peptide with C-terminal GSG linker]
Completion: 65535

Prompt: Which 10 microM no FAD (array fluorescence of bound diaphorase) is reported for this sequence? AFYGLELGGSG [array peptide with C-terminal GSG linker]
Completion: 16544

Prompt: Look up 10 microM no FAD (array fluorescence of bound diaphorase) for this sequence: YRFQSGLPAKDGSG [array peptide with C-terminal GSG linker]
Completion: 50316.25

---

tested on: diaphorase; test: fluorescently labeled diaphorase binding to peptide array with or without excess FAD; conditions: 1 micromolar labeled diaphorase, excess FAD present; 65535 is detector saturation
Readout name: 1 microM FAD (array fluorescence of bound diaphorase)
Form field (numeric): enter value without unit.

Prompt: Checklist item: 1 microM FAD (array fluorescence of bound diaphorase) tested on diaphorase, entry YRFAQYKGQKDGSG [array peptide with C-terminal GSG linker] , value?
Completion: 1604.25

Prompt: Return 1 microM FAD (array fluorescence of bound diaphorase) measured with diaphorase given this sequence: YNRNAKSSGGSG [array peptide with C-terminal GSG linker]
Completion: 1546

Prompt: Query for diaphorase: what 1 microM FAD (array fluorescence of bound diaphorase) does the record show for RYAYFQHLGGSG [array peptide with C-terminal GSG linker] ?
Completion: 4971.5

Prompt: What is its 1 microM FAD (array fluorescence of bound diaphorase) for diaphorase? Entry: RWSFPAKGGSG [array peptide with C-terminal GSG linker]
Completion: 3614

Prompt: # get_value(readout= 1 microM FAD (array fluorescence of bound diaphorase), system= diaphorase) for EDEGLSKFEGGSG [array peptide with C-terminal GSG linker]
Completion: 4165.5
